B1: EEHEE_rd3_1049 (parent)
chain: TTVKLGDIKVTFDNPEKAKKYAQKLAKIYQLTVHVHGDTIHVK

Variants of: B1
Experiment: folding stability dG (cDNA display proteolysis); higher = more stable
Conditions: PBS, room temperature
parameter: folding stability dG

variant-id | assay-value
P15I | 2.01 kcal/mol
Q30R | 1.98 kcal/mol
D13W | 2.01 kcal/mol
